B1: Poly(rC)-binding protein 1, residues 278 to 350; numbered along this chain, Q15365 (parent)
chain: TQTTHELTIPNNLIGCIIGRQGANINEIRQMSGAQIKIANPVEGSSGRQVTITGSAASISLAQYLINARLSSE

variants of: B1; experiment: abundance fitness (aPCA) (normalised: wild type 0, dead -1); higher = more abundant; growth selection in yeast, the domain comes from the species named; conditions: Homo sapiens
Classification field: enter true (1) for abundance fitness values not below -0.1, false (0) for values below it.

Previously resolved entries follow.
# changes, label-value
measured = [
    ("S45Y", "true (1)"),
    ("Y64P", "false (0)"),
    ("I52W", "false (0)"),
]

Query: Could you verify whether the entry G19S shows abundance fitness of no less than -0.1?
Result: false (0)

Query: Now this one: G33H
Result: false (0)

Query: Queued: N11C
Result: false (0)

Query: Also P10V ?
Result: false (0)

Query: And what about the variant A57I ?
Result: false (0)

Query: Again, but for I14D
Result: false (0)

From: the Human Domainome abundance scans (Beltran et al. 2025)
